Listed here: items and their measured Ki.
target: baculovirus-expressed human cathepsin S (Homo sapiens, UniProt P25774); construct: made in house; experiment: Cathepsin S Ki determination; assay type: biochemical; conditions: Table 1, class symbols
Sequence (P25774 115-331): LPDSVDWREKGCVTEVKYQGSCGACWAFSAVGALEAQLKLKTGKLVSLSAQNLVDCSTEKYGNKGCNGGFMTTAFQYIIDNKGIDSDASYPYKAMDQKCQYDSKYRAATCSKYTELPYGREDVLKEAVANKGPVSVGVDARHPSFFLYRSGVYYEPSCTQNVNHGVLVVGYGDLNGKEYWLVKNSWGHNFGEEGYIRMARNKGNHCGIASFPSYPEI

compound | Ki
CC(C)C[C@H](NC(c1ccc(-c2ccc(S(C)(=O)=O)cc2)cc1)C(F)(F)F)C(=O)N1C[C@@H](Cl)[C@H]2OCC(=O)[C@H]21 (stereo in doubt) | > 10 µM
CN1CCN(c2nc(-c3ccc(C(=O)N[C@@H](CC(C)(C)F)C(=O)N4C[C@@H](Cl)[C@H]5OCC(=O)[C@H]54)cc3)cs2)CC1 | > 10 µM
CC(C)C[C@H](NC(=O)c1ccc(-c2nc(N3CCN(C)CC3)sc2F)cc1)C(=O)N1C[C@@H](Cl)[C@H]2OCC(=O)[C@H]21 | > 10 µM
CC(C)C[C@H](NC(=O)c1ccc(-c2csc(N3CCN(C)CC3)n2)c(F)c1)C(=O)N1C[C@@H](Cl)[C@H]2OCC(=O)[C@H]21 | 1 to 5 µM
